Exercise: for every item that follows, state its recorded binding signal.
Target: T1, RBFOX1 RRM (Homo sapiens, UniProt Q9NWB1 109-208)
T1 sequence: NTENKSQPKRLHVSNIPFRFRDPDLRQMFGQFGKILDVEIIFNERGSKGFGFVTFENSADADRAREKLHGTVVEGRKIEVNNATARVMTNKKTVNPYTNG
Test: EMSA; HiTS-Eq, 1 nM pool, 10 min; buffer printed only for the single-RNA assays: 10 mM Tris pH 7.5, 150 mM NaCl, 3.4 mM EDTA, 0.001% NP-40, 30 C
Settings: tags: His6 N-terminal (pET28a); label: 5' 32P
Whole data set: some 16,000 sequences, median “ka relative to ugcaugu” near 0.0091, cut for the highest 2% near 0.032. The full list was thinned out, with the highest values kept by preference.

binding signal reported for this binder CUAGAAU (DNA:RNA) RNA: GGGAGACCGGAAUUCAGAUUGUCCCUAGAAUUUAAAUCCCGUCGUAGCCACCA DNA 1: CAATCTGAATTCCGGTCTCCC DNA 2: TGGTGGCTACGACGGGATT : 0.00687 KA relative to UGCAUGU

binding signal reported for this binder GCACCGC (DNA:RNA) RNA: GGGAGACCGGAAUUCAGAUUGUCCGCACCGCUUAAAUCCCGUCGUAGCCACCA DNA 1: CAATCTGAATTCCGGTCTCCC DNA 2: TGGTGGCTACGACGGGATT : 0.00949 KA relative to UGCAUGU

binding signal reported for this binder GCACCCG (DNA:RNA) RNA: GGGAGACCGGAAUUCAGAUUGUCCGCACCCGUUAAAUCCCGUCGUAGCCACCA DNA 1: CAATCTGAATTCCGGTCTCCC DNA 2: TGGTGGCTACGACGGGATT : 0.00754 KA relative to UGCAUGU

binding signal reported for this binder GGCAUGG (DNA:RNA) RNA: GGGAGACCGGAAUUCAGAUUGUCCGGCAUGGUUAAAUCCCGUCGUAGCCACCA DNA 1: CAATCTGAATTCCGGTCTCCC DNA 2: TGGTGGCTACGACGGGATT : 0.104 KA relative to UGCAUGU

binding signal reported for this binder CGCCACG (DNA:RNA) RNA: GGGAGACCGGAAUUCAGAUUGUCCCGCCACGUUAAAUCCCGUCGUAGCCACCA DNA 1: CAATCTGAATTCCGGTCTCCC DNA 2: TGGTGGCTACGACGGGATT : 0.0114 KA relative to UGCAUGU

binding signal reported for this binder CUGGACU (DNA:RNA) RNA: GGGAGACCGGAAUUCAGAUUGUCCCUGGACUUUAAAUCCCGUCGUAGCCACCA DNA 1: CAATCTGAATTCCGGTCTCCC DNA 2: TGGTGGCTACGACGGGATT : 0.00842 KA relative to UGCAUGU

binding signal reported for this binder GCAUAGC (DNA:RNA) RNA: GGGAGACCGGAAUUCAGAUUGUCCGCAUAGCUUAAAUCCCGUCGUAGCCACCA DNA 1: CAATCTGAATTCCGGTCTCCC DNA 2: TGGTGGCTACGACGGGATT : 0.0095 KA relative to UGCAUGU

All values here come from paper PMC9911399.
